For each entry below, report its Hemolytic assay IC50 (nM), 10% serum value.
Target: Human Factor P (human, UniProt P27918 29-469)
Sequence (P27918 29-469 limits assumed): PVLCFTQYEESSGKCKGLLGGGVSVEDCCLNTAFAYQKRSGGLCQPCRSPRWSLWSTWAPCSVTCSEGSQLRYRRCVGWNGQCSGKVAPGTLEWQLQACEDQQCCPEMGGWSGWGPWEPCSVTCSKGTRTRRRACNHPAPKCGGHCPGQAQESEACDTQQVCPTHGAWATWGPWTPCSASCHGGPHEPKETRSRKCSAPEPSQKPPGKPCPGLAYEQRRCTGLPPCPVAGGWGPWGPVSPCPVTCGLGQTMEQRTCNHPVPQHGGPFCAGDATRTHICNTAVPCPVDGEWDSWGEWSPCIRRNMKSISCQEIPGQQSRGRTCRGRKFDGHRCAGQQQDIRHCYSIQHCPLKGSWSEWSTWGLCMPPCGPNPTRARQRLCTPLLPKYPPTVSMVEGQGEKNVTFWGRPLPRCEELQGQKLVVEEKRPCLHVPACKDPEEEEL
Assay: cell-based or functional assay
Answers are plain numbers, in nM.

For each entry beneath this line, provide reported Hemolytic assay IC50 (nM), 10% serum.
1. NVS806 (Fab, V domains shown) VH: EVQLVQSGAEVKKPGSSVKVSCKASGGTFSSYAISWVRQAPGQGLEWMGRIIPIFGTANYAQKFQGRVTITADESTSTAYMELSSLRSEDTAVYYCARHGGYVFDSWGQGTLVTVSS VL: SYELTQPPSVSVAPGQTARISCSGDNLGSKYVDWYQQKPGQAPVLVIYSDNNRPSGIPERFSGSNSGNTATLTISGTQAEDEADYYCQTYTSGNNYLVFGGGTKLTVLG
2. NVS962 (Fab, V domains shown, also called Fab NVS962) VH: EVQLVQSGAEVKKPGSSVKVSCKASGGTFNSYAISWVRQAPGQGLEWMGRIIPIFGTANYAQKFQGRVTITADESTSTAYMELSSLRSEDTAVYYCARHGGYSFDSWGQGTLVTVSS VL: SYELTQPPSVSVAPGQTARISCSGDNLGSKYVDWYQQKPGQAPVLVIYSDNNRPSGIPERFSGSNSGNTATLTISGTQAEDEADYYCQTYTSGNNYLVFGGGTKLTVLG
3. NVS963 (Fab, V domains shown, Disulfide-bridged Fab; also called Fab NVS963) VH: EVQLVQSGAEVKKPGSSVKVSCKASGGTFSSYAISWVRQAPGQGLEWMGPINPYYGDAIYAQKFQGRVTITADESTSTAYMELSSLRSEDTAVYYCARYYSDYMDYWGQGTLVTVSS VL: QSVLTQPPSVSGAPGQRVTISCTGSSSNIGAGYDVHWYQQLPGTAPKLLIHDNSHRPSGVPDRFSGSKSGTSASLAITGLQSEDEADYYCASYDESAHSVFGGGTKLTVLG
4. NVS809 (Fab, V domains shown) VH: EVQLVQSGAEVKKPGSSVKVSCKASGGTFSSYAISWVRQAPGQGLEWMGRIIPIFGTANYAQKFQGRVTITADESTSTAYMELSSLRSEDTAVYYCARHGGYYFDSWGQGTLVTVSS VL: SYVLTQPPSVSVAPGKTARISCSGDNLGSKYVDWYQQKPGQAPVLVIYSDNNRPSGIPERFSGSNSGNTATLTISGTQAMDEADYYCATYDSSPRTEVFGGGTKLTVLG
5. NVS962-G (Fab, V domains shown, NVS962 with heavy chain N30 replaced with glycine) VH: EVQLVQSGAEVKKPGSSVKVSCKASGGTFGSYAISWVRQAPGQGLEWMGRIIPIFGTANYAQKFQGRVTITADESTSTAYMELSSLRSEDTAVYYCARHGGYSFDSWGQGTLVTVSS VL: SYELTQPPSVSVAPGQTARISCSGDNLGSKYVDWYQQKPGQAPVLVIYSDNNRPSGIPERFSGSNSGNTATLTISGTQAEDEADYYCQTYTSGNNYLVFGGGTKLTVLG
6. NVS967 (Fab, V domains shown, Disulfide-bridged Fab; also called Fab NVS967) VH: EVQLVQSGAEVKKPGASVKVSCKASGYTFTSHYMHWVRQAPGQGLEWMGNINPVDGGTEYAQKFQGRVTMTRDTSISTAYMELSSLRSEDTAVYYCARDGIEHGGHYYWGYLFDIWGQGTLVTVSS VL: SYVLTQPPSVSVAPGKTARISCSGDSIREYYVHWYQQKPGQAPVLVIGDDTNRPSGIPERFSGSNSGNTATLTISRAQAGDEADYYCAAWDFSPAIVFGGGTKLTVLG

1. 10.1
2. 13.2
3. 10.1
4. 12.1
5. 13.4
6. 9.61

For each entry beneath this line, provide reported Hemolytic assay IC50 (nM), 10% serum.
1. NVS962-Q (Fab, V domains shown, NVS962 with heavy chain N30 replaced with glutamine (deamidation site removed)) VH: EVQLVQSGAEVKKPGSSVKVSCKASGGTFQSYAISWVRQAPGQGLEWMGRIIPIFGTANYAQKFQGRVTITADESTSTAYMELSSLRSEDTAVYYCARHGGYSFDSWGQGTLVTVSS VL: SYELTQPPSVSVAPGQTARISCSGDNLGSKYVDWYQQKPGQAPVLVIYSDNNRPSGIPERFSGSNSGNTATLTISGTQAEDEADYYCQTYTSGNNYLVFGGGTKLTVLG
2. NVS962-S (Fab, V domains shown, NVS962 with heavy chain N30 replaced with serine) VH: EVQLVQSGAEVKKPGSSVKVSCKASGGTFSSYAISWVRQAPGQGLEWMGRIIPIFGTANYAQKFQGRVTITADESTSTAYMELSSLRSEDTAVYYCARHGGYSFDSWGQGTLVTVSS VL: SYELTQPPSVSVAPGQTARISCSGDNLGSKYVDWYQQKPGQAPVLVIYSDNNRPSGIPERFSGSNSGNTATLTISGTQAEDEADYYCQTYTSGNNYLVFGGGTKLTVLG

15.3
8.21

For each entry beneath this line, provide reported Hemolytic assay IC50 (nM), 10% serum.
1. NVS965-S (Fab, V domains shown, NVS965 with heavy chain N30 replaced with serine) VH: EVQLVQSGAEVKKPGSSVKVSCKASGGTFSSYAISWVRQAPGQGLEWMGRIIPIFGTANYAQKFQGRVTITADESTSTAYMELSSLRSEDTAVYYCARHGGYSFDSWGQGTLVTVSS VL: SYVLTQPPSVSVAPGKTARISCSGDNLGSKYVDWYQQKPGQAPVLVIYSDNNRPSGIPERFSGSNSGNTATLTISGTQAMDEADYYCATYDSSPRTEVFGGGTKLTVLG
2. NVS965-T (Fab, V domains shown, NVS965 with heavy chain N30 replaced with threonine) VH: EVQLVQSGAEVKKPGSSVKVSCKASGGTFTSYAISWVRQAPGQGLEWMGRIIPIFGTANYAQKFQGRVTITADESTSTAYMELSSLRSEDTAVYYCARHGGYSFDSWGQGTLVTVSS VL: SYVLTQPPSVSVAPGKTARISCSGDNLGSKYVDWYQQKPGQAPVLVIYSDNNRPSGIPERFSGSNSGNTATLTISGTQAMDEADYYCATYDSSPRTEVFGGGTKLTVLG

7.89
7.15
